# System Tested: hERG potassium channel current (IKr) (Homo sapiens, UniProt Q12809)
# Sequence (Q12809 whole entry): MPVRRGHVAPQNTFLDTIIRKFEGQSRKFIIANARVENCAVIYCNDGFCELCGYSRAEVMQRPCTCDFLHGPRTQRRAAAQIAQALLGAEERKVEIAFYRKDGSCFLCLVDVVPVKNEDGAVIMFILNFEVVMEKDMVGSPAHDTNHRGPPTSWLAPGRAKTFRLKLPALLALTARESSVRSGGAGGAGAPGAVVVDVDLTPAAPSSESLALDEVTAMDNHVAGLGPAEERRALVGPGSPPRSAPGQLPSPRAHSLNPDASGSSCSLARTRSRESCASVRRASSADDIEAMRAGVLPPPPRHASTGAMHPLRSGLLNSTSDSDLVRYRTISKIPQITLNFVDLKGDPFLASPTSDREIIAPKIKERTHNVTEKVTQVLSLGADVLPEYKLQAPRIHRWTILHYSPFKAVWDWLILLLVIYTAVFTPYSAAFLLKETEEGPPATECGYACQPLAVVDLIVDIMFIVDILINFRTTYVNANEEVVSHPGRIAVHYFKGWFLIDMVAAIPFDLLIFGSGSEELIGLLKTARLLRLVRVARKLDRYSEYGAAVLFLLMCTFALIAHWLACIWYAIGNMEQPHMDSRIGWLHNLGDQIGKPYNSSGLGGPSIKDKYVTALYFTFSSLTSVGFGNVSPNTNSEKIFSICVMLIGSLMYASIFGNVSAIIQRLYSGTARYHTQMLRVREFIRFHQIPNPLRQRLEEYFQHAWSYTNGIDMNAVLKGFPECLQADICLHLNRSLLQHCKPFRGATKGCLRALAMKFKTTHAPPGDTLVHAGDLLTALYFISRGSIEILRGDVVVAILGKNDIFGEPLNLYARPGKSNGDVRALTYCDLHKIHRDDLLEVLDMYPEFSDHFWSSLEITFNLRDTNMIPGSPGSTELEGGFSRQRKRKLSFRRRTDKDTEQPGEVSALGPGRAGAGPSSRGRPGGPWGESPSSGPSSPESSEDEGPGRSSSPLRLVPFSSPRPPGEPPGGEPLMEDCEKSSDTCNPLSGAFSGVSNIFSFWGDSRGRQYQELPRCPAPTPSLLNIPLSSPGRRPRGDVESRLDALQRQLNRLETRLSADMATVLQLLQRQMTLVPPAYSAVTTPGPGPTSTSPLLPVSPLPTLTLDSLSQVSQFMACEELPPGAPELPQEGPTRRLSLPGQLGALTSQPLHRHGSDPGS
# Protocol Notes: in vitro
# Test Settings: human
Measurement Kind: inhibition at 35 µM (%)
One number for each entry, in %.

q: Fill in the recorded inhibition at 35 µM for this compound, with hERG potassium channel current (IKr) (Homo sapiens, UniProt Q12809) as test system: COc1ccc2[nH]cc(CCN(C)C)c2c1
a: 82.2

* * *

# Protocol Notes: Toxicokinetics, 14-day intranasal study in dogs (Study 62959)
# Assay type: in vivo
# Test Settings: female, beagle, dog, plasma, inhaled or intranasal, 0.4 mg/kg/day, Day 1, Female
Measurement Kind: Cmax
Report the figure along with its unit, number first.

q: What value of Cmax has been reported for the following compound? COc1ccc2[nH]cc(CCN(C)C)c2c1 [BPL-5MEO, 5-methoxy-N,N-dimethyltryptamine]
a: 242 ng/mL
